Study Target: UniProt:P21453
Sequence (P21453 whole entry): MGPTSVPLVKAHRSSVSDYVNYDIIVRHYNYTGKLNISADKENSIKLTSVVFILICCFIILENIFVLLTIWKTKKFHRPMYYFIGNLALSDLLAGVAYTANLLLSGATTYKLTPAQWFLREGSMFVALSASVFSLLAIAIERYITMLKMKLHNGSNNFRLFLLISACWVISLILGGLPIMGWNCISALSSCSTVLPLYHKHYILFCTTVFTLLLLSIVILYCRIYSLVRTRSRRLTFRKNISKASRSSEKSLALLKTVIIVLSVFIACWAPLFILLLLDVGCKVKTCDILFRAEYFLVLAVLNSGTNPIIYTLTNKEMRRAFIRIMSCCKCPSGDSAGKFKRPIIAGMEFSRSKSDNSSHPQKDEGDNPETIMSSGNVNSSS
Measurement Protocol: 35S-GTPγS binding, membranes from CHO cells expressing S1P1
Applied Conditions: CHO cell membranes expressing S1P1
Value Type: EC50 (µM)

Some solved entries appear below for comparison.
| Molecule | Measured Result |
| --- | --- |
| Cc1c(-c2nc(-c3ccccc3)no2)nnn1-c1ccccc1F | 1.1 |
| Fc1ccc(-c2noc(-c3nnn(-c4ccccc4F)c3-c3ccncc3)n2)cc1F | 0.06 |
| Fc1ccc(F)c(-c2noc(-c3nnn(-c4ccccc4F)c3-c3ccccc3)n2)c1 | 0.007 |

a. Fc1ccccc1-n1nnc(-c2nc(-c3ccc(C(F)(F)F)nc3)no2)c1-c1ccncc1
b. COc1ccc(F)cc1-c1noc(-c2nnn(-c3ccccc3F)c2-c2ccncc2)n1
c. Fc1ccccc1-n1nnc(-c2nc(-c3ccc4c(c3)NCC4)no2)c1-c1ccncc1
d. Fc1ccccc1-n1nnc(-c2nc(-c3ccc(Cn4cccn4)cc3)no2)c1-c1ccncc1
Req: Please order the records by their reported EC50, lowest number first. Note for the reader: the ranking is given by listing the labels in the order requested.
Resp: d, b, c, a

1. Fc1ccccc1-n1nnc(-c2nc(-c3ccncc3)no2)c1-c1ccccn1
2. CS(=O)(=O)c1cccc(-c2noc(-c3nnn(-c4ccccc4F)c3-c3ccccn3)n2)c1
3. COc1cccc(-c2noc(-c3nnn(-c4ccccc4F)c3-c3ccncc3)n2)c1
4. Fc1ccc(F)c(-c2noc(-c3nnn(-c4ccccc4F)c3CN3CCOCC3)n2)c1
Req: List these items ordered by EC50, big to small. Note for the reader: the ranking is given by listing the labels in the order requested.
Resp: 2, 4, 1, 3

I. COCc1c(-c2nc(-c3cccc(S(C)(=O)=O)c3)no2)nnn1-c1ccccc1F
II. Fc1ccccc1-n1nnc(-c2nc(-c3cccc(C(F)(F)F)c3)no2)c1CN1CCOCC1
Req: For this pair, I and II , which shows a numerically higher EC50? Pick one and reply with its label.
Resp: I
(I: 0.594 µM, II: 0.34 µM)

P. Fc1ccc(F)c(-c2noc(-c3nnn(-c4ccccc4F)c3CNCC3CC3)n2)c1
Q. CNCc1ccc(-c2noc(-c3nnn(-c4ccccc4F)c3-c3ccncc3)n2)cc1
Req: Which entry shows the lesser value of EC50 here, P or Q ? Pick one and reply with its label.
Resp: Q
(Q: 0.01 µM, P: 0.806 µM)

P. Fc1ccccc1-n1nnc(-c2nc(-c3cccnc3)no2)c1Cc1ccccc1
Q. Fc1ccc(Br)c(-c2noc(-c3nnn(-c4ccccc4F)c3-c3ccncc3)n2)c1
R. COc1ccccc1-c1noc(-c2nnn(-c3ccccc3F)c2-c2ccncc2)n1
S. Fc1ccccc1-n1nnc(-c2nc(-c3ccccn3)no2)c1-c1ccncc1
T. Cc1c(-c2nc(-c3cc(F)ccc3F)no2)nnn1-c1ccccc1F
Req: List these items ordered by EC50, big to small. Note for the reader: the ranking is given by listing the labels in the order requested.
Resp: S, T, P, R, Q

I. Fc1ccccc1-n1nnc(-c2nc(-c3cccnc3)no2)c1-c1ccncc1
II. COc1ccccc1-c1noc(-c2nnn(-c3ccccc3F)c2-c2ccccc2)n1
Req: For this pair, I and II , which shows a numerically higher EC50? Pick one and reply with its label.
Resp: II

I. Fc1ccc(F)c(-c2noc(-c3nnn(-c4ccccc4F)c3-c3ccncc3)n2)c1
II. COCc1c(-c2nc(-c3cccc4[nH]ccc34)no2)nnn1-c1ccccc1F
Req: For this pair, I and II , which shows a numerically higher EC50? Pick one and reply with its label.
Resp: II
(II: 0.204 µM, I: 0.007 µM)
